# target-entity: TLCK-treated pancreatic bovine chymotrypsin (Bos taurus, UniProt P00766)
# Construct: TLCK-treated pancreatic bovine chymotrypsin (Sigma-Aldrich); purchased Sigma-Aldrich; host or cells: bovine pancreas
# assay-notes: IC50 determination, spectrophotometric protease assay
# Type: biochemical
Here, each record is paired with measured IC50 data.
observation-type: IC50 (µM)

>>> df
                                   compound  observation_type   u  qualifier  result_number
0  C#CCCCOC(=O)NC(Cc1ccc(N)cc1)P(=O)(Oc1ccccc1)Oc1ccccc1 (stereo not shown) [16b]              IC50  µM          =           2.67
1  CC(C)C(NC(=O)OCCCc1cn(CCOCCOCCOCCNC(=O)CCCCC[C@H]2NC(=O)N[C@H]2C)nn1)P(=O)(Oc1ccccc1)Oc1ccccc1 (stereo partly shown)              IC50  µM          >             10
2  C#CCCCOC(=O)NC(Cc1ccc(NC(=N)N)cc1)P(=O)(Oc1ccccc1)Oc1ccccc1 (stereo not shown) [34b]              IC50  µM          >             10
3  C#CCCCOC(=O)NC(CCCCN)P(=O)(Oc1ccccc1)Oc1ccccc1.O=C(O)C(F)(F)F (stereo not shown) [29b]              IC50  µM          =           5.87

---

# target-entity: Trypsin-3 (Homo sapiens)
# Sequence (P35030 1-304): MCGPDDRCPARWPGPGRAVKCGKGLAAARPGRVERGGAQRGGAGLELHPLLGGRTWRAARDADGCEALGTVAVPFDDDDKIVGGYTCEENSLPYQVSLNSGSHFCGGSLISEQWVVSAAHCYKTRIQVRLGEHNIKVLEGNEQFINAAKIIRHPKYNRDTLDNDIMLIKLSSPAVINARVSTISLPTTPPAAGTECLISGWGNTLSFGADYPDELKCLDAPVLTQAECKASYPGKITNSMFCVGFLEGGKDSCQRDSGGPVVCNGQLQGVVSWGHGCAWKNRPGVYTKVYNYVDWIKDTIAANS
# assay-notes: Jump dilution, determination of inhibition type
# Type: biochemical
# Design: purchased R&D
# details: inhibitor at 10 times IC50, 15 min, diluted 10-fold or 100-fold; Rev./Irrev.

compound	Trypsin-3 jump dilution result
C#CCCCOC(=O)NC(CCCNC(=N)N)P(=O)(Oc1ccccc1)Oc1ccccc1 (stereo not shown) [32b]	Irrev.
CC(=O)Nc1ccc(OP(=O)(Oc2ccc(NC(C)=O)cc2)C(NC(=O)OCCCc2cn(CCOCCOCCOCCNC(=O)CCCCC[C@H]3NC(=O)N[C@H]3C)nn2)c2ccc(NC(=N)N)cc2)cc1 (stereo partly shown) [56b]	Irrev.
C[C@@H]1NC(=O)N[C@@H]1CCCCCC(=O)NCCOCCOCCOCCn1cc(CCCOC(=O)NC(c2ccc(NC(=N)N)cc2)P(=O)(Oc2ccc(Cl)cc2)Oc2ccc(Cl)cc2)nn1 (stereo partly shown) [57b]	Irrev.
C[C@@H]1NC(=O)N[C@@H]1CCCCCC(=O)NCCOCCOCCOCCn1cc(CCCOC(=O)NC(Cc2ccc(NC(=N)N)cc2)P(=O)(Oc2ccccc2)Oc2ccccc2)nn1 (stereo partly shown) [50b]	Rev.
C#CCCCOC(=O)NC(CCCNC(=N)N)P(=O)(Oc1ccc(Cl)cc1)Oc1ccc(Cl)cc1 (stereo not shown) [33b]	Irrev.
C[C@@H]1NC(=O)N[C@@H]1CCCCCC(=O)NCCOCCOCCOCCn1cc(CCCOC(=O)NC(c2ccc(NC(=N)N)cc2)P(=O)(Oc2ccccc2)Oc2ccccc2)nn1 (stereo partly shown) [55b]	Irrev.
CC(=O)Nc1ccc(OP(=O)(Oc2ccc(NC(C)=O)cc2)C(Cc2ccc(NC(=N)N)cc2)NC(=O)OCCCc2cn(CCOCCOCCOCCNC(=O)CCCCC[C@H]3NC(=O)N[C@H]3C)nn2)cc1 (stereo partly shown) [52b]	Rev.
C#CCCCOC(=O)NC(c1ccc(NC(=N)N)cc1)P(=O)(Oc1ccccc1)Oc1ccccc1.O=C(O)C(F)(F)F (stereo not shown) [37b]	Irrev.
C#CCCCOC(=O)NC(Cc1ccc(NC(=N)N)cc1)P(=O)(Oc1ccccc1)Oc1ccccc1 (stereo not shown) [34b]	Rev.
C[C@@H]1NC(=O)N[C@@H]1CCCCCC(=O)NCCOCCOCCOCCn1cc(CCCOC(=O)NC(Cc2ccc(NC(=N)N)cc2)P(=O)(Oc2ccc(Cl)cc2)Oc2ccc(Cl)cc2)nn1 (stereo partly shown) [54b]	Rev.
C#CCCCOC(=O)NC(Cc1ccc(NC(=N)N)cc1)P(=O)(Oc1ccc(NC(C)=O)cc1)Oc1ccc(NC(C)=O)cc1 (stereo not shown) [35b]	Rev.
C#CCCCOC(=O)NC(c1ccc(NC(=N)N)cc1)P(=O)(Oc1ccc(NC(C)=O)cc1)Oc1ccc(NC(C)=O)cc1 (stereo not shown) [38b]	Irrev.
C#CCCCOC(=O)NC(C1CCN(C(=N)N)CC1)P(=O)(Oc1ccccc1)Oc1ccccc1 (stereo not shown) [41b]	Irrev.

Just for reference, paper PMC9849758 is where these values come from.
